system.name: fMet-Leu-Phe receptor (Homo sapiens, UniProt P21462)
Sequence (P21462 whole entry): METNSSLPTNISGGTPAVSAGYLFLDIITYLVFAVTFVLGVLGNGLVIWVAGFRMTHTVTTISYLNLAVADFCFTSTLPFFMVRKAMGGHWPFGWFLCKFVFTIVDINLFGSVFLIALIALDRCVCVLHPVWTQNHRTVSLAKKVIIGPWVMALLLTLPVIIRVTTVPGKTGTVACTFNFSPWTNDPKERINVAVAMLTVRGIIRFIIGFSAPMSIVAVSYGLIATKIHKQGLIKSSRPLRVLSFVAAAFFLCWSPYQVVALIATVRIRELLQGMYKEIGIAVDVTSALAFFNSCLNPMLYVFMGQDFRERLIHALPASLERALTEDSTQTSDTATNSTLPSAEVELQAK
protocol.description: Agonist activity at human recombinant FPR expressed in CHO cells assessed as calcium flux by aequorin based bioluminescence assay
experimental.endpoint: EC50

Quote EC50 reported for CCc1nc2ccccc2n1[C@@H]1CCN(C(=O)c2nc3ccc(OC)cc3[nH]2)C1 please.
> 10 µM

----------
system.name: N-formyl peptide receptor 2 (Homo sapiens)
Sequence (P25090 whole entry): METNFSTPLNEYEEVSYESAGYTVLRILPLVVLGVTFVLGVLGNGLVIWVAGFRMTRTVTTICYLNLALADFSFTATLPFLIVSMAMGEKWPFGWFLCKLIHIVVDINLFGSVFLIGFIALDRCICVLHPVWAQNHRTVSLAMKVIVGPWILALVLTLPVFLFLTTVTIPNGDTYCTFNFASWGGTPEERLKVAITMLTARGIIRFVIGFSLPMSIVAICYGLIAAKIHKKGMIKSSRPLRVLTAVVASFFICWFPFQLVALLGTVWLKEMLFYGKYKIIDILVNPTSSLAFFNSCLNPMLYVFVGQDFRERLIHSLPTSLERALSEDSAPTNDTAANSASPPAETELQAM
protocol.description: Agonist activity at human recombinant FPRL1 expressed in CHO cells assessed as calcium flux by aequorin based bioluminescence assay
experimental.endpoint: pEC50
Quick note: pEC50 values are minus log10 of concentrations in mol/L.

Please look at this compound and report its pEC50: CCc1nc2ccccc2n1[C@@H]1CCN(C(=O)c2nc3ccc(OC)cc3[nH]2)C1
5.73
